# System: HT-29
# assay.procedure: NCI tumour cell line growth inhibition, 48 h
The source made the active and inactive calls. Cut-off read from the data, not from the text of the source: active = GI50 up to about 1.1 µM and inactive = higher.
Outcome codes: active, inactive

[
  {
    "compound": "COc1cc(C2C3C=CC=C4CC=CC(=C43)C3CCC(=O)N32)cc(OC)c1OC (stereo not given)",
    "tested.system": "HT-29",
    "qualitative.label": "inactive"
  },
  {
    "compound": "O=C1Nc2ccccc2/C1=N/NC(=S)Nc1cccc(Cl)c1",
    "tested.system": "HT-29",
    "qualitative.label": "inactive"
  },
  {
    "compound": "CC1=NN(C(=O)c2ccc([N+](=O)[O-])cc2)C(=O)C1/N=N/c1ccccc1C(=O)O (stereo not given)",
    "tested.system": "HT-29",
    "qualitative.label": "inactive"
  },
  {
    "compound": "O=C(CC1(O)C(=O)Nc2ccccc21)c1ccc(O)cc1 (stereo not given)",
    "tested.system": "HT-29",
    "qualitative.label": "inactive"
  },
  {
    "compound": "O=c1[nH]c(N/N=C\\C(=N/Nc2nc3ccccc3c(=O)[nH]2)C(O)C(O)C(O)CO)nc2ccccc12 (stereo not given)",
    "tested.system": "HT-29",
    "qualitative.label": "inactive"
  },
  {
    "compound": "Cc1cn(C2CC(O)C(Cn3nncc3Cn3ccc(=O)[nH]c3=O)O2)c(=O)[nH]c1=O (stereo not given)",
    "tested.system": "HT-29",
    "qualitative.label": "inactive"
  },
  {
    "compound": "CN1CC2(CCCCC2)C(O)C12C=CCCC2 (stereo not given)",
    "tested.system": "HT-29",
    "qualitative.label": "inactive"
  },
  {
    "compound": "O=C1C=C2CC[C@H]3[C@@H]4CC[C@H](Oc5c6ccccc6nc6ccccc56)[C@H]4CC[C@@H]3[C@H]2CC1",
    "tested.system": "HT-29",
    "qualitative.label": "inactive"
  },
  {
    "compound": "CCOC(=O)c1c(CN2CCOCC2)n(Cc2ccccc2)c2c1cc(O)c1nc(C)c(C)nc12",
    "tested.system": "HT-29",
    "qualitative.label": "inactive"
  },
  {
    "compound": "COc1cc2cc(C(=O)N3CC(CCl)c4ccc(NCCN)cc43)[nH]c2c(OC)c1OC (stereo not given)",
    "tested.system": "HT-29",
    "qualitative.label": "active"
  }
]

* * *

# Test system: DMS-114
# assay.procedure: NCI tumour cell line growth inhibition, 48 h
Calls of active or inactive are those of the source. No stated cut-off is given here; in the data, active = GI50 up to about 1.1 µM and inactive = higher.
Labels: active, inactive

[
  {
    "molecule": "COc1cccc2c1C(=O)c1c(O)c3c(c(O)c1C2=O)C[C@@](O)(C(=O)CO)CC3OC1CC(NCCOCC(OC(C)=O)OC(C)=O)C(O)C(C)O1 (stereo partly specified)",
    "qualitative.label": "active"
  },
  {
    "molecule": "Cc1nc(-n2nc(-c3ccccc3)cc2-c2ccccc2)sc1C(/C=C/c1ccc([N+](=O)[O-])cc1)=N/NC(N)=S",
    "qualitative.label": "inactive"
  },
  {
    "molecule": "COc1cc(CC(=O)c2cc3c(cc2-c2ccccc2)OCO3)cc(OC)c1OC",
    "qualitative.label": "inactive"
  },
  {
    "molecule": "C=C1C(=O)OC2C[C@H](C)C3CC(=O)C(C)=C3CC12 (stereo partly specified)",
    "qualitative.label": "inactive"
  },
  {
    "molecule": "COc1ccc(Cc2cc3c(cc2OCC(=O)O)OCO3)cc1",
    "qualitative.label": "inactive"
  },
  {
    "molecule": "CCOC(=O)C/N=c1\\nc(SC)sc2c(C(=O)OCC)nc(Sc3ccccc3)n12",
    "qualitative.label": "inactive"
  },
  {
    "molecule": "CC12N=NNC1C(=O)NC2=O (stereo unspecified)",
    "qualitative.label": "inactive"
  },
  {
    "molecule": "CCCCCCCCCCCCCCCC(=O)OCC1OC(N2C(=O)/C(=N\\NC(N)=S)c3ccc([N+](=O)[O-])cc32)C(OC(C)=O)C1OC(C)=O (stereo unspecified)",
    "qualitative.label": "inactive"
  },
  {
    "molecule": "CCC(C)CN1C(=O)NC(C)(Cc2ccccc2)C1=O (stereo unspecified)",
    "qualitative.label": "inactive"
  },
  {
    "molecule": "S=C1SCC2CCCN12 (stereo unspecified)",
    "qualitative.label": "inactive"
  },
  {
    "molecule": "CC/C(=C(\\c1ccccc1)c1ccc(OCC[N+](C)(C)C)cc1)c1ccccc1 [TAMOXIFEN METHYL IODIDE]",
    "qualitative.label": "inactive"
  },
  {
    "molecule": "CCCCSC(=CC(=O)c1cccc(C(=O)C=C(SCCCC)SCCCC)n1)SCCCC",
    "qualitative.label": "inactive"
  },
  {
    "molecule": "CN(O)C(=S)c1ccccc1",
    "qualitative.label": "inactive"
  },
  {
    "molecule": "OC(c1ccccc1)(c1ccccc1)c1ccccn1",
    "qualitative.label": "inactive"
  },
  {
    "molecule": "CC1=C(C)C(=O)c2c(cc3c4ccccc4ccn23)C1=O",
    "qualitative.label": "inactive"
  },
  {
    "molecule": "C/C=C1\\Oc2ccc(OC)cc2S1(=O)=O",
    "qualitative.label": "inactive"
  },
  {
    "molecule": "C=CCSc1ncnc2c1ncn2C1OC(CO)C(O)C1O (stereo unspecified)",
    "qualitative.label": "inactive"
  },
  {
    "molecule": "CC1=NN(C(=O)c2ccc([N+](=O)[O-])cc2)C(=O)C1/N=N/c1ccccc1C(=O)O (stereo unspecified)",
    "qualitative.label": "inactive"
  },
  {
    "molecule": "COc1cc2c3cc1Oc1c(OC)c(OC)cc4c1C(Cc1ccc(cc1)Oc1cc(ccc1O)CC3N(C)CC2)N(C)CC4 (stereo unspecified)",
    "qualitative.label": "inactive"
  },
  {
    "molecule": "Cc1cccc(/C=N/N=C(\\N)NO)n1",
    "qualitative.label": "inactive"
  },
  {
    "molecule": "CCCCC(C(=O)C(=O)Nc1ccccc1CC)C(=O)C(C)C (stereo unspecified)",
    "qualitative.label": "inactive"
  }
]

Values from ChEMBL document CHEMBL1201862
